Molecular target: human ASIC3 (Homo sapiens, UniProt Q9UHC3)
Construct: host or cells: Xenopus laevis oocytes (cRNA injection)
Sequence (Q9UHC3 whole entry): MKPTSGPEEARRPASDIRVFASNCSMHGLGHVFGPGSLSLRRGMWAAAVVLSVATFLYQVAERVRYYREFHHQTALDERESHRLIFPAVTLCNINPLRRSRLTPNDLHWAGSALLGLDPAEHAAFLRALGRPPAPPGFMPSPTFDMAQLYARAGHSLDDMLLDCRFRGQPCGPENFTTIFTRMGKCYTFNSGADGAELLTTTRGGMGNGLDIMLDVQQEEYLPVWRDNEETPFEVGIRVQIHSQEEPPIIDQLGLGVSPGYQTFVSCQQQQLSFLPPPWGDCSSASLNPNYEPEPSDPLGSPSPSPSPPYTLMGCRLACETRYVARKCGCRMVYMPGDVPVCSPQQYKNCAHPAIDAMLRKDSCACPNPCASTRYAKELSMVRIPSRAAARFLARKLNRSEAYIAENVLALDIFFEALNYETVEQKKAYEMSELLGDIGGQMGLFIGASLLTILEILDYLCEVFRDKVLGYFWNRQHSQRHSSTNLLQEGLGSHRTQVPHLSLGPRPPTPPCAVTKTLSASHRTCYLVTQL
Experiment: Inhibition of transient hASIC3 current, two-electrode voltage clamp, Xenopus laevis oocytes
Assay type: cell-based
Settings: hASIC3 in X. laevis oocytes; conditioning pH 7.8; 15 s preincubation; holding -50 mV; logistic fit; mean ± SEM (n = 4–6); read-out: IC50, transient currents
attribute-measured: IC50 (µM)
Report the value in µM with no unit label.

// query Entry under review: `O=C(O)C[C@H](C(=O)O)[C@@H](OC(=O)C1=Cc2cc(O)c(O)cc2[C@@H](c2ccc(O)c(O)c2)[C@@H]1C(=O)O[C@@H](C(=O)O)[C@H](CC(=O)O)C(=O)O)C(=O)O` . Reported IC50?
// result 331

Sourced from paper PMC6316600
